Listed variants paired with reported reverse-splicing fitness
B1: Azoarcus group I ribozyme (parent)
chain: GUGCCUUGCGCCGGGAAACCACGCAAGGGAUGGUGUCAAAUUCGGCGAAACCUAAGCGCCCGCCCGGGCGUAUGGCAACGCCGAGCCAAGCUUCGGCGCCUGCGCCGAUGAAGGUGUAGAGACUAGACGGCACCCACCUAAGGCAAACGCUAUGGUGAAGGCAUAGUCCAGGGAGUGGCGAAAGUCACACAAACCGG

variants of: B1; assay: reverse-splicing fitness (ratio to wild type); higher = more active; in vitro selection; Mg2+ level not given

mutationId	reverse-splicing fitness
A111U A120G A145C C150A C169A U176C	0.00665
C82G A111U A120C A145U C150G C169U U176G	0.00561
A111U A120U A145C C169G U176A	0.00441
C82G A120C A145C C150U	0.0403
C82U A111U A120G C150U C169U U176G	0.00647
C82U A111U A120U A145C C150A C169G U176C	0.00255
C82U A111G A120C A145G C150A C169G U176C	0.0213
C82U A111C A145C C150A C169G U176C	0.0205
C82U A111U A145G C150G U176A	0.0103
C82G A111C A120C A145C C150A C169U U176C	0.0123
C82A A111C A120G A145G C150G C169A U176C	0.0113
C82A A111G A120C U176G	0.00892
C82A A111G A145U C169G U176A	0.011
C82G A145C C169U U176A	0.0128
C82A A120U C150G C169U U176C	0.00369
A120U C169U U176A	0.0922
C82U A111G A145G C150U C169A U176G	0.00534
C82G A111G A120U A145C C150G U176G	0.00247
C82U A111G A120U A145U U176G	0.004
C82G A111C A120G A145U C150G C169U	0.0085
C82U A111U A120C A145G C150G C169A	0.00919
A111G A120G C150G C169G U176G	0.00386
